Source: ChEMBL document CHEMBL4513216

The following compounds are shown together with reported cytotoxicity at 10 µM values.
test: Toxicity liver stage against HepG2, at 10uM; type: cell-based; parameters: test concentration 10 uM, cell line HepG2-A16-CD81EGFP; conditions: human, HepG2-A16-CD81EGFP cells; read-out: INHIBITION
Property: cytotoxicity at 10 µM (%)

Clc1ccccc1OC1CN(CC2CCOC2)C1 (stereo unspecified) = -0.745
CCN1CCC(NC(=O)CN2CCCC(NS(C)(=O)=O)C2)CC1 (stereo unspecified) = 2.94
CC(C)Cc1cc(CNC(=O)c2ccccc2C2CCNC2)no1 (stereo unspecified) = -45.5
O=C(c1cnccn1)N1CCN(Cc2ccncc2)c2ncccc2C1 = -2.72
CC1CC(NS(=O)(=O)c2ccc(C(F)(F)F)nc2)C1 (stereo unspecified) = 23.1
COc1ccnc(N2CCN(C(=O)c3ccn(C)c(=O)c3)CC2)n1 = -13.7
CN(Cc1ccccc1)CC1(O)CCCN(CCC2CCCCC2)C1=O (stereo unspecified) = -2.3
O=C(CN(Cc1cccs1)c1ccc(F)cc1)NC1CCOCC1 = 13.5
CC(C)N1CCC(N2CCCC(C(=O)NCC3(O)CCCCC3)C2)CC1 (stereo unspecified) = 2.59
COC(=O)NCC(=O)NCC(C)(C)c1cccc(Br)c1 = -3.01
CN(Cc1ccncc1)C1COC2(CCN(c3ncc(F)cn3)CC2)C1 (stereo unspecified) = 6.95
Cc1n[nH]c(C2CN(C(=O)c3coc(Br)c3)CCO2)n1 (stereo unspecified) = -11.3
O=C(NCc1ccoc1)c1ccc(C2CCCN2CC2CCOCC2)s1 (stereo unspecified) = 6.7
CCOCC(=O)N1CCCC2(CCN(c3ccccc3)C2=O)C1 (stereo unspecified) = 2.02
FC(F)(F)Oc1ccc(CN2CCCC(n3cncn3)C2)cc1 (stereo unspecified) = -14.4
CC(C)(C)n1ncc2c(=O)n(CC(=O)NCc3ccccc3)cnc21 = 42
Cc1cnn(CC2CCCN2C(=O)c2cccc(-n3ccc(C)n3)c2)c1 (stereo unspecified) = -19.2
CC(C)CNC(=O)CN(C)S(C)(=O)=O = 13.7
O=C(CCn1c(C(F)F)cc2cccnc21)NC1CC1 = -1.71
CS(=O)(=O)N1CCCC1c1ccnc2nccn12 (stereo unspecified) = -2.62
CN(C)CC1CSCCCN1C(=O)c1cccc(C(F)(F)F)c1 (stereo unspecified) = -5.03
Cc1cccc(C(=O)N2CCC(C(=O)c3cc(F)ccc3F)CC2)n1 = -0.448
Cc1ccc(C)c(CS(=O)(=O)Cc2ccn(C)c(=O)c2)c1 = 13.8
Cc1nc(N)sc1C(=O)N1CCC(C(O)Cc2ccccc2)CC1 (stereo unspecified) = 2.29
CN(CCn1cccn1)S(=O)(=O)c1ccc(C#N)cc1 = -4.81
Clc1ccc(OCCN2CCN(CCn3cncn3)CC2)cc1 = -17.4
O=C1CC2(CCN(C(=O)c3cccc(Cl)c3)CC2)CN1 = -3.02
Cc1ccc(CN2CCOCC3(C2)CN(c2ccc(C)s2)C(=O)CO3)o1 (stereo unspecified) = 7.31
CCn1nccc1CN(C)C(=O)Cn1nc(C)c(C)c1C = 0.66
Cc1nn(C)c(C)c1C1CCCN1C(=O)c1ccc(C(N)=O)s1 (stereo unspecified) = -1.52
NC(=O)CCSCc1ccc(Br)c(F)c1 = -4.81
Cc1nn(C)cc1CN(Cc1ccccn1)Cc1ccccc1Cl = 1.2
CS(=O)(=O)N1C[C@@H]2C[C@H](C(=O)N3CCOCC3)[C@H](C1)O2 = -2.92
O=C(CCNC(=O)C1CCCC1)NCc1ccccc1Cn1cncn1 = -5.63
OC(CNCCn1cccn1)c1cccc(Br)c1 (stereo unspecified) = -5.98
CCCN(C)CCC(=O)N1CCCC1Cn1cccn1 (stereo unspecified) = -16.9
CC(C)c1nnc(CN2CCCC3(CC2)CN(C)C(=O)O3)o1 (stereo unspecified) = -1.52
Cc1cccc(-c2ccc(C(=O)NCC3CCCOC3)c(=O)[nH]2)c1 (stereo unspecified) = -15.7
CCc1ncc(C(=O)N(C)CCc2nc3cc(OC)ccc3[nH]2)cn1 = -47.4
CCN(Cc1cccc2c1OCO2)C(=O)NC1CC1 = -9.48
Cc1csc(S(=O)(=O)N2CCN(C)C3(CCC(=O)N(C)CC3)C2)c1 (stereo unspecified) = 1.67
